- tgt: ACE (Homo sapiens, UniProt P12821)
- Construct: same enzyme (human urinary ACE); from tissue; host or cells: human urine (purified as described by Ryan et al., Tissue and Cell 10, 555 (1978))
- Sequence (P12821 30-1232 limits assumed): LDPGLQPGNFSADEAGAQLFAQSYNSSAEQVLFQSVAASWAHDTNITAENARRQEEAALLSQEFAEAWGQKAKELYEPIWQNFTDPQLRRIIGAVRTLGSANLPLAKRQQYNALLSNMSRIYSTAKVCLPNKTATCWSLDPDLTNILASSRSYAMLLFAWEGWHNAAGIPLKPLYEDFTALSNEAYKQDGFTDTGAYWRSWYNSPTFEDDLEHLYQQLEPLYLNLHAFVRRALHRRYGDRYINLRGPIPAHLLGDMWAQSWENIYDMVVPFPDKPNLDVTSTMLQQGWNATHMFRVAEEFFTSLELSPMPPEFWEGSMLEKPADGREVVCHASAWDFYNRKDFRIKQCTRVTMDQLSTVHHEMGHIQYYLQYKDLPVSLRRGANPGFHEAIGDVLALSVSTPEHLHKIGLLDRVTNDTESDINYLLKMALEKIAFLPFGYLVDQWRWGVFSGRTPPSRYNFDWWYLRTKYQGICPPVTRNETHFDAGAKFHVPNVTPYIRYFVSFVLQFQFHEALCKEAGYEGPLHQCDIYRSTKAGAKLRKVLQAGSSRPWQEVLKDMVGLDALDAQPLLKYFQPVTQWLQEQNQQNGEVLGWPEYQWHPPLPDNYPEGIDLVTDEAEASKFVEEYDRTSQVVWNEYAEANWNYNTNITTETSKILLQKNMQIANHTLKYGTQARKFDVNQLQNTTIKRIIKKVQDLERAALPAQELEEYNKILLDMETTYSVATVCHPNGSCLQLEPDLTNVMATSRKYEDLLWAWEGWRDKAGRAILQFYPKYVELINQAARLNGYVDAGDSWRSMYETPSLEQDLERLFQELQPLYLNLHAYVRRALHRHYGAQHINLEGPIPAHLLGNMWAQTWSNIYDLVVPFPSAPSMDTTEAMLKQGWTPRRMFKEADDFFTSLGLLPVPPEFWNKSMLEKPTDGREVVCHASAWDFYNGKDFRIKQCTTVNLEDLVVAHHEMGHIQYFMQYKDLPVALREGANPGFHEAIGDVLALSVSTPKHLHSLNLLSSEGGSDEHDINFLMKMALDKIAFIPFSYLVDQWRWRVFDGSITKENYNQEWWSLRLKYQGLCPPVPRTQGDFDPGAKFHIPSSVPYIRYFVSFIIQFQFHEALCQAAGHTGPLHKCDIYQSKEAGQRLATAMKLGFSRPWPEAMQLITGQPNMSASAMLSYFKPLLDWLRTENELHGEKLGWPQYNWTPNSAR
- assay.name: ACE activity assay in vitro (I50, hydrolysis of [3H]-Benzoyl-GlyHisLeu)
- Type: biochemical
- condition.notes: ACE purified from human urine; pH 8.0, 37° C., Benzoyl-GlyHisLeu 1×10^-4 M
measure: IC50 (nM)

compound: C[C@H](CSC(=O)[C@H](Cc1c[nH]c2ccccc12)NC(=O)c1ccccc1)C(=O)N1CCC[C@H]1C(=O)O
measured.number: 9.4
